EC50 values, listed per item
- experimental.target: human CK1Epsilon (Cos 7 cells cotransfected with mouse Per3-GFP) (Homo sapiens)
- Construct: His tag of the vector pcDNA4/hisA (only the vector name is printed)
- Sequence (P49674 whole entry): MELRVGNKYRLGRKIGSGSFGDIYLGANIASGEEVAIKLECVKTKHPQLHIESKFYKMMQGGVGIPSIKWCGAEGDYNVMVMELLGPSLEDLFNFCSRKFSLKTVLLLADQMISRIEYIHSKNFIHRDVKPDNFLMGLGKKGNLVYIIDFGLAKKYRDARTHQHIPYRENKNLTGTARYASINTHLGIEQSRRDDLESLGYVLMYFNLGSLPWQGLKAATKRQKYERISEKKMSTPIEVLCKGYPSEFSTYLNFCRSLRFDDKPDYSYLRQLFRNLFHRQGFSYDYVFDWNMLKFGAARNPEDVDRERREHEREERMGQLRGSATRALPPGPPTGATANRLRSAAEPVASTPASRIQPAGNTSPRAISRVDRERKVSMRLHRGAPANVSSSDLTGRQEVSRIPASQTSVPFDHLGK
- assay.protocol: CK1 WCA HCS nuclear translocation assay (CK1ε)
- run.parameters: inhibition of mPer3-GFP translocation to the nucleus, overnight exposure, read-out: CK1 ε WCA EC50
Write it as a number; the unit nM goes unstated.

// solved cases for EC50 follow
>  <compound>
Cn1cc(-c2ccnc3c2CN(S(C)(=O)=O)C3)c(-c2ccc(F)cc2)n1 [Example 10]

>  <observed.result>
62.4

$$$$
>  <compound>
Cn1cc(-c2ccnc3c2CN(S(=O)(=O)C2CC2)C3)c(-c2ccc(F)cc2)n1 [Example 12]

>  <observed.result>
882

$$$$
>  <compound>
Cn1cc(-c2ccnc3c2C(=O)NC3)c(-c2ccc(F)cc2)n1 [Example 4]

>  <observed.result>
684

$$$$

Specify measured EC50 for CCS(=O)(=O)N1Cc2nccc(-c3cn(C)nc3-c3ccc(F)cc3)c2C1 [Example 11] .
668

Specify measured EC50 for Cn1cc(-c2ccnc3c2CN(C(=O)OCc2ccccc2)C3)c(-c2ccc(F)cc2)n1 [Example 22] .
275

Specify measured EC50 for Cn1cc(-c2ccnc3c2CN(C(=O)C2CC2)C3)c(-c2ccc(F)cc2)n1 [Example 21] .
82.3

Specify measured EC50 for CC1CNCc2nccc(-c3cn(C)nc3-c3ccc(F)cc3)c2O1 (racemic) [Example 8] .
217

Specify measured EC50 for Cn1cc(-c2ccnc3c2OCCNC3)c(-c2ccc(F)cc2)n1 [Example 7] .
291

Specify measured EC50 for Cn1cc(-c2ccnc3c2CN(C(=O)Cc2ncccn2)C3)c(-c2ccc(F)cc2)n1 [Example 20] .
361

* * *

- experimental.target: UniProtKB P49674
measure.name: pIC50
// scale note: pIC50 = -log10(conc_M); give the bare number

// solved cases for pIC50 follow
>  <molecule>
Cn1cc(-c2ccnc3c2C(=O)NC3)c(-c2ccc(F)cc2)n1

>  <pIC50>
7.14

$$$$
>  <molecule>
Cn1cc(-c2ccnc3c2C(=O)N(CCC#N)C3)c(-c2ccc(F)cc2)n1

>  <pIC50>
7.33

$$$$
>  <molecule>
Cn1cc(-c2ccnc3c2C(=O)N([C@H]2[C@@H]4COC[C@@H]42)C3)c(-c2ccc(F)cc2)n1

>  <pIC50>
7.06

$$$$
>  <molecule>
Cn1cc(CN2Cc3nccc(-c4cn(C)nc4-c4ccc(F)cc4)c3C2=O)cn1

>  <pIC50>
6.91

$$$$
>  <molecule>
CC(C)OC(=O)CN1Cc2nccc(-c3cn(C)nc3-c3ccc(F)cc3)c2C1=O

>  <pIC50>
6.30

$$$$

Specify measured pIC50 for "COC(=O)C1(N2Cc3nccc(-c4cn(C)nc4-c4ccc(F)cc4)c3C2=O)CC1" .
6.73

Specify measured pIC50 for "COCCN1Cc2nccc(-c3cn(C)nc3-c3ccc(F)cc3)c2C1=O" .
6.41

* * *

- experimental.target: human CK1δ (Cos 7 cells cotransfected with mouse Per3-GFP) (Homo sapiens, UniProt P48730)
- Construct: His tag of the vector pcDNA4/hisA (only the vector name is printed)
- Sequence (P48730 whole entry): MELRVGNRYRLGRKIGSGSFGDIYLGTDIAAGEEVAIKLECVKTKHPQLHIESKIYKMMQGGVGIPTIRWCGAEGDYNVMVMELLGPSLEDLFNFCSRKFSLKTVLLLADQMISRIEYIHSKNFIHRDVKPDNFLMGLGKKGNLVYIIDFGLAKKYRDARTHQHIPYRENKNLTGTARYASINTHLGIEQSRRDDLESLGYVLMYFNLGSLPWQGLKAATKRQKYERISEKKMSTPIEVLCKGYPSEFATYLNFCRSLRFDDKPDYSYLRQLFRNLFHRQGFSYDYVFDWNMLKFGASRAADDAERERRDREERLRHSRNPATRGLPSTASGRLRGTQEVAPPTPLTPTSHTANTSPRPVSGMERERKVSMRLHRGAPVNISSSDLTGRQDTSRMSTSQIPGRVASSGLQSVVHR
- assay.protocol: CK1 WCA HCS nuclear translocation assay (CK1δ)
- run.parameters: inhibition of mPer3-GFP translocation to the nucleus, overnight exposure, read-out: CK1 δ WCA EC50
- Experimental: CK1 WCA HCS Nuclear Translocation Assay. Cos 7 cells were maintained at 37° C. in 5% CO2 in Dulbecco's Modified Eagle Medium (Gibco 11995) supplemented with 10% fetal bovine serum. Log-phase cells were dislodged with 5 min treatment of TrypLE Express (Gibco 12605) and viable cell count was determined with Cedex cell counter. Cells were diluted in DMEM medium to a density of 1.5e5 viable cells/mL in ⅔ of the final volume of final transfected cell mix. […]
EC50 values, listed per item
Write it as a number; the unit nM goes unstated.

>  <molecule>
Cn1cc(-c2ccnc3c2C(=O)N(C2CCOCC2)C3)c(-c2ccc(F)cc2)n1

>  <observed.result>
224

$$$$
>  <molecule>
Cn1cc(-c2ccnc3c2CN(C(=O)C2CCOC2)C3)c(-c2ccc(F)cc2)n1 (stereo not shown)

>  <observed.result>
38.1

$$$$
>  <molecule>
CCOCCCN1Cc2nccc(-c3cn(C)nc3-c3ccc(F)cc3)c2C1=O

>  <observed.result>
129

$$$$

Give human CK1δ (Cos 7 cells cotransfected with mouse Per3-GFP) (Homo sapiens, UniProt P48730) EC50 for the following molecule: "Cn1cc(-c2ccnc3c2C(=O)N(Cc2ccccc2)C3)c(-c2ccc(F)cc2)n1"
16.4
